Experiment: Human HepG2 cell viability assay in 384 well format
Assay type: toxicity, cell-based
Set-up: dose 125 nL, time 70.5 hour; concentration not given beside the values
Details: HepG2 cells, read-out: Inhibition
Below, each entry is listed alongside its reported cytotoxicity at 70.5 h.

Consider the worked cases shown below.
>  <COMPOUND>
COCC(=O)N1CCN(C(=O)Cc2cccs2)[C@H]2CS(=O)(=O)C[C@H]21

>  <cytotoxicity at 70.5 h>
-5.46%

$$$$
>  <COMPOUND>
CCOCC(O)CN1CCN(C(=O)C2CCCC2)CC1 (stereo not drawn)

>  <cytotoxicity at 70.5 h>
-0.535%

$$$$
>  <COMPOUND>
O=C(c1cncc(NCC2COc3ccccc3C2)n1)N1CCCC1 (stereo not drawn)

>  <cytotoxicity at 70.5 h>
14.9%

$$$$
>  <COMPOUND>
CN1CCc2c(C#N)c(NCc3ccccc3)n3cnnc3c2C1

>  <cytotoxicity at 70.5 h>
17.9%

$$$$
>  <COMPOUND>
CC(C)Cc1noc(CNc2cc3c(cc2Cl)OCCCO3)n1

>  <cytotoxicity at 70.5 h>
1.94%

$$$$

Okay, next one:
Inquiry: What does the data say about its cytotoxicity at 70.5 h? Entry: Cc1cccc(C(C)(C)CNC(=O)CN(C)S(=O)(=O)c2cccnc2)c1
Reply text: -15.3%
